experimental target: Glutamate NMDA receptor
assay comment: Ability to inhibit [3H]-CGS- 19755 binding to NMDA receptor
Format: protein-complex assay
This listing pairs compounds with measured pIC50.
Note on units: pIC50 is unitless, being -log10 of a concentration expressed in mol/L.

Solved entries (count: 2):
compound="O=C(O)[C@H]1C[C@@H](Cc2nnn[nH]2)CCN1 (racemic)" reported_measurement=6.97
compound="O=C(O)[C@H]1C[C@@H](Cc2nnn[nH]2)CCN1 (stereo in doubt; (+)-1)" reported_measurement=5.62

# next compound below
pIC50 lookup needed for O=C(O)[C@H]1C[C@@H](Cc2nnn[nH]2)CCN1 (stereo in doubt) , thanks.
7.17
